Read-out: Transforming Growth Factor (TGFA), TGFA (gene 7039)
Test: LTEA_HepaRG_TGFA: Life Technologies and Expression Analysis (LTEA) Assay for Transforming Growth Factor (TGFA) using HepaRG (AID 2283532)
Conditions: mRNA level, 48 h; actives raise or lower the signal
Active and inactive are the calls of the source. Rule for the calls: active = hit-call score of the fitted dose curve at least 0.9, where 1 is the maximum; inactive = score below 0.9.
The categories you may choose from are active, inactive

Use the examples below as a reference point.
CCC(C)(c1ccc(O)cc1)c1ccc(O)cc1 = inactive
Clc1ccc(Cl)cc1 = inactive
CCCCCCOC(=O)c1ccccc1C(=O)OCCCCCC = inactive

Shift focus to the following entry.
Prompt line: What classification did CCCCCCCCOC(=O)c1ccccc1C(=O)OCCCCCCCC end up with in this test?
Response line: inactive

---

Read-out: solute carrier (SLC22A1), SLC22A1 (gene 6580)
Test: LTEA_HepaRG_SLC22A1: Life Technologies and Expression Analysis (LTEA) Assay for solute carrier (SLC22A1) using HepaRG (AID 2283524)
Conditions: mRNA level, 48 h; actives raise or lower the signal
Active and inactive are the calls of the source. How the source made its calls: active means hit-call score of the fitted dose curve at least 0.9, where 1 is the maximum; inactive means score below 0.9.
One label from this list, please: active, inactive

See these solved cases before continuing.
C[C@]12CCC(=O)C=C1CC[C@@H]1[C@@H]2CC[C@]2(C)C(=O)CC[C@@H]12 = inactive
ClC1=C(Cl)[C@]2(Cl)[C@@H]3[C@@H](Cl)[C@H]4O[C@H]4[C@@H]3C1(Cl)C2(Cl)Cl = active
O=NN(c1ccccc1)c1ccccc1 = inactive
CCCCCCCCCC[N+](C)(C)CCCCCCCCCC = active

Prompt line: Tell me the recorded outcome of this test for Cc1ccc(O)c(C)c1 .
Response line: inactive

Prompt line: For CC(C)C(=O)OCC(C)(C)C(OC(=O)C(C)C)C(C)C (centres undefined) , which call appears in the assay record?
Response line: inactive

Prompt line: // outcome(item) with item = CCC(C)(CC)c1cc(NC(=O)c2c(OC)cccc2OC)on1
Response line: active

Prompt line: Dear colleague, could you share the recorded outcome for Cc1cccc([N+](=O)[O-])c1 when you have a moment?
Response line: inactive

Prompt line: Each compound tested received a call. Report the one for CCCCCCCCCc1ccc(O)cc1 .
Response line: inactive

Prompt line: Fill in: this test's call for CC(C)(c1ccccc1)c1ccc(O)cc1 is ___
Response line: active

Prompt line: Hey, what did the test say about Clc1ccc(Cl)cc1 ?
Response line: inactive

Prompt line: Record lookup: outcome of this test for CCC(=O)O[C@H]1CC[C@H]2[C@@H]3CCC4=CC(=O)CC[C@]4(C)[C@H]3CC[C@]12C ?
Response line: inactive

Prompt line: Status in this test for O=C(O)C(F)(F)C(F)(F)C(F)(F)C(F)(F)C(F)(F)C(F)(F)C(F)(F)C(F)(F)C(F)(F)F ?
Response line: active

Prompt line: Short answer needed: outcome of this test for O=C(N[C@H]1CN2CCC1CC2)c1cc2ccoc2cn1 ?
Response line: inactive

---

Read-out: Monocyte Chemoattractant Protein-1 (MCP1), CCL2 (gene 6347)
Test: BSK_CASM3C_MCP1: BioMAP Diversity Plus: CASM3C Assay for Monocyte Chemoattractant Protein-1 (MCP1) Biomarker Activity (AID 2283046);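 note: MCP-1 level quantified by ELISA 24 h after dosing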
Settings: primary human coronary artery smooth muscle cells; actives raise or lower the signal
Calls of active or inactive are those of the source. Rule for the calls: active = hit-call score of the fitted dose curve at least 0.9, where 1 is the maximum; inactive = score below 0.9.
// classify into label 1 (active), label 0 (inactive)

CCOCCOC(C)=O = label 0

Prompt line: So what was the verdict on O=C(O)C(F)(F)C(F)(F)C(F)(F)C(F)(F)C(F)(F)C(F)(F)C(F)(F)C(F)(F)C(F)(F)F in this test?
Response line: label 0

Prompt line: For COc1ccc(O)c(C(C)(C)C)c1 , which call appears in the assay record?
Response line: label 0

Prompt line: What call does the record list for CCOC(=O)C(O)(c1ccc(Cl)cc1)c1ccc(Cl)cc1 ?
Response line: label 0

Prompt line: Which result was noted for this compound in the test: CCCN(CCC)N=O
Response line: label 0

Prompt line: What call does the record list for Cc1cc2c3c(c1)C(c1ccccc1)=N[C@@H](NC(=O)c1ccncc1)C(=O)N3CC2 ?
Response line: label 0

Prompt line: What outcome does the record of this test show for C=CC(N)=O ?
Response line: label 1

Prompt line: Query: recorded result category for CC(C)(O)C(=O)Nc1ccc([N+](=O)[O-])c(C(F)(F)F)c1 in this test
Response line: label 0

---

Test: ATG_Ets_CIS: Attagene CIS-FACTORIAL HepG2 Assay for human Erythroblast Transformation Specific (ETS) (AID 2282941)
Settings: HepG2 ETS cis-reporter transcription, actives raise or lower the signal
Calls of active or inactive are those of the source. The calls were made as follows: active = hit-call score of the fitted dose curve at least 0.9, where 1 is the maximum; inactive = score below 0.9.
Valid outcomes are listed here; reply with one: active, inactive

Completed entries (count: 5):
Oc1ccc(Cl)cc1Cl = inactive
O=C(O)C(F)(F)C(F)(F)C(F)(F)C(F)(F)C(F)(F)F = inactive
CCCCCCCCCc1ccc(O)cc1 = inactive
CN(C)c1nc(=O)n(C2CCCCC2)c(=O)n1C = inactive
CCNc1nc(NC(C)C)nc(SC)n1 = inactive

Prompt line: Short answer needed: outcome of this test for ClC1=C(Cl)[C@]2(Cl)[C@@H]3[C@@H]4C[C@@H]([C@H]5O[C@@H]45)[C@@H]3[C@@]1(Cl)C2(Cl)Cl ?
Response line: inactive

Prompt line: Kindly provide the recorded test outcome for the following compound: C[C@]12CCC(=O)C=C1CC[C@@H]1[C@@H]2CC[C@]2(C)C(=O)CC[C@@H]12
Response line: inactive

Prompt line: # fetch the recorded call for CC(C)(O)C(=O)Nc1ccc([N+](=O)[O-])c(C(F)(F)F)c1 here
Response line: inactive

Prompt line: # outcome recorded in this test, key = CCCCCCOC(=O)c1ccccc1C(=O)OCCCCCC
Response line: inactive

Prompt line: What did the test return for ClC(Cl)=C(c1ccc(Cl)cc1)c1ccc(Cl)cc1 ?
Response line: inactive

Prompt line: Could you kindly confirm the outcome this assay logged for O=NN(c1ccccc1)c1ccccc1 ?
Response line: inactive

Prompt line: # outcome recorded in this test, key = Cc1ccc(O)c(C)c1
Response line: inactive

Prompt line: // outcome(item) with item = O=C(N[C@H]1CN2CCC1CC2)c1cc2ccoc2cn1
Response line: inactive

---

Assay: CCTE_Padilla_ZF_144hpf_TERATOSCORE: (Legacy) CCTE's 144 Hour Post-fertilization zebrafish Assay Teratoscore, Padilla Lab (AID 2283679)
The source made the active and inactive calls. Rule for the calls: active = hit-call score of the fitted dose curve at least 0.9, where 1 is the maximum; inactive = score below 0.9.
I would appreciate it if you answered using one of these outcomes: label 1 for active, label 0 for inactive

Solved cases (10 shown):
CCOC(=O)C(O)(c1ccc(Cl)cc1)c1ccc(Cl)cc1 = label 1
O=C(O)C(F)(F)C(F)(F)C(F)(F)C(F)(F)C(F)(F)C(F)(F)C(F)(F)C(F)(F)F = label 1
Clc1ccc(C(c2ccccc2Cl)C(Cl)(Cl)Cl)cc1 (centres undefined) = label 1
O=C(O)C(F)(F)C(F)(F)C(F)(F)C(F)(F)C(F)(F)C(F)(F)C(F)(F)C(F)(F)C(F)(F)F = label 1
CCCN(CCC)N=O = label 0
CC(c1ccc(O)cc1)(c1ccc(O)cc1)c1ccc(O)cc1 = label 0
CCNc1nc(NC(C)C)nc(SC)n1 = label 1
ClC1=C(Cl)[C@]2(Cl)[C@@H]3[C@@H]4C[C@@H]([C@H]5O[C@@H]45)[C@@H]3[C@@]1(Cl)C2(Cl)Cl = label 1
C[C@]12CCC(=O)C=C1CC[C@@H]1[C@@H]2CC[C@@]2(C)[C@H]1CC[C@]2(C)O = label 1
NS(=O)(=O)C(F)(F)C(F)(F)C(F)(F)C(F)(F)C(F)(F)C(F)(F)C(F)(F)C(F)(F)F = label 1

Prompt line: Test call, this compound: O=C(NC(=O)c1cc(F)c(F)cc1Cl)Nc1cc(F)ccc1N1CCC(C(=O)O)CC1
Response line: label 1

Prompt line: Returns: the outcome recorded for Oc1ccc(C(c2ccc(O)cc2)(C(F)(F)F)C(F)(F)F)cc1 in this assay.
Response line: label 1

Prompt line: Would you mind telling me which call this test gave Nc1ccc(-c2ccc(N)cc2)cc1 ?
Response line: label 1

Prompt line: What classification did CCC(C)c1cc([N+](=O)[O-])cc([N+](=O)[O-])c1O (centres undefined) end up with in this test?
Response line: label 1

Prompt line: // outcome(item) with item = CC(C)(O)C(=O)Nc1ccc([N+](=O)[O-])c(C(F)(F)F)c1
Response line: label 1

Prompt line: Status in this test for C[C@]12CCC(=O)C=C1CC[C@@H]1[C@@H]2CC[C@]2(C)C(=O)CC[C@@H]12 ?
Response line: label 1

Prompt line: Query: recorded result category for COc1ccc(O)c(C(C)(C)C)c1 in this test
Response line: label 1

Prompt line: Hi team, can someone confirm the assay call for CCCCCCCCCC[N+](C)(C)CCCCCCCCCC ?
Response line: label 1

Prompt line: Hello, I am checking results. What call was entered for CCOP(=S)(OCC)SCSC(C)(C)C ?
Response line: label 1

Prompt line: Per the assay record, what outcome was assigned to CO/C=C(/C(=O)OC)c1ccccc1COc1cccc(C(F)(F)F)n1 ?
Response line: label 1
